system: HCT-116 colon; test: NCI-60 one-dose screen, 48 h (100 = growth as untreated, 0 = no growth, -100 = all killed); conditions: 10 µM unless noted
About 83,000 compounds went through this panel and 20% of them were active in at least one assay; those are over-represented in the sample as a whole.
READOUT KIND: growth (%)
One number for each entry, in %.

Solved entries:
>>> df
                                   molecule  value_measured
0  COC(=O)C1=Nc2ccc(F)cc2/C1=C/c1sc(=S)[nH]c1O            6.89
1  CN1CCN(Cc2ccc(NC(=O)c3cncc(C#Cc4nc(N)nc5[nH]ncc45)c3)cc2C(F)(F)F)CC1            49.1
2  CCN1CCN(C(=S)SCC(=O)Nc2nc3ccc(C)cc3s2)CC1            94.7
3  COc1cc(C2C3=C(COC3=O)N(CCO)c3cc4c(cc32)OCCO4)cc(OC)c1O (stereo unspecified)            12.8
4  Nc1cccc(Nc2cc(S(=O)(=O)O)c(N)c3c2C(=O)c2ccccc2C3=O)c1             108

For each entry beneath this line, provide reported growth.
1. Cc1cc(Br)c(N)c(Br)c1
2. O=c1oc2ccc(Cl)cc2c(=O)n1-c1ccc(F)cc1F
3. O=NN(C(=O)NC1CCC(C(=O)O)CC1)C1CCC(C(=O)O)CC1 (stereo unspecified)
4. O=C(N=Nc1c(O)[nH]c2ccccc12)c1oc2ccccc2c1CN1CCN(c2ccccc2)CC1
5. COc1ccc(Cn2c(Br)c3c(c2-c2cc(OC)c(OC)c(OC)c2)CCc2sc(NC(C)=O)nc2-3)cc1

1: 82.8; 2: 7.6; 3: 104; 4: -53.1; 5: 40.7

For each entry beneath this line, provide reported growth.
1. Cc1cccc(NC(=O)c2sc3nc4c(cc3c2N)CCCC4)c1C
2. COc1cccc2cc(N(C)c3nc(C)nc4ccsc34)ccc12
3. COC(=O)/C(=C\c1c(-c2ccccc2)[nH]c2ccccc12)S(C)(=O)=O
4. COc1nc2c(c(=O)n1C)N=C1c3ccccc3C(=O)C1C(c1ccccc1)N2 (stereo unspecified)
5. COc1ccc(OC)c(N(CCN2C(=O)c3ccccc3C2=O)C(=O)CCl)c1
6. O=C(Nc1ccc(I)cc1F)c1cc(Cl)ccc1O
7. NC(CCc1nc2ccccc2c(=O)[nH]1)C(=O)O (stereo unspecified)

1: 14.8; 2: -0.926; 3: 17.4; 4: 89.9; 5: 89; 6: -29.5; 7: 105

For each entry beneath this line, provide reported growth.
1. O=c1oc2ccc(I)cc2c(=O)n1-c1ccc(I)cc1F
2. O=C(c1nc2ccccc2[nH]1)C1C(c2ccc([N+](=O)[O-])cc2)C2CC3CCCCC3N2[C@@]12C(=O)Nc1cc(Cl)ccc12 (stereo partly specified)

1. 2.66
2. 17.9

For each entry beneath this line, provide reported growth.
1. O=C1c2ccc3c4c(ccc(c24)C(=O)N1CCCCO)C(=O)N(CCCCO)C3=O
2. C=C(C)CCC(C)N1CCC(N2CCC(C(=O)NCCc3ccccc3)CC2)CC1 (stereo unspecified)

1: 28.4; 2: 17.6

----------
I'd appreciate it if you could supply growth values for the items below.
Tested on: PC-3 prostate
Assay: NCI-60 one-dose screen, 48 h (100 = growth as untreated, 0 = no growth, -100 = all killed)
Conditions: 10 µM unless noted
Experimental: Growth inhibition of the PC-3 human tumor cell line is measured as a screen for anti-cancer activity. Cells are grown in 96 well plates and exposed to the test compound for 48 hours. Compounds are tested at a single concentration, which is 10^-5 M for most compounds. The reported endpoint is percent growth (GI% or GIPRCNT), where numbers from 0 - 100% represent growth inhibition, and numbers from -100% - 0 represent cell death. For example, a value of 40 represents 60% growth inhibition. […]
Compounds without any hit were thinned out: in the full panel of roughly 83,000, 20% have a hit.
Give bare numbers, in %.

Solved entries:
>>> print(df.to_string())
                                   compound  value_measured
0  CCn1c(SCC(=O)Nc2cc(C(F)(F)F)ccc2Cl)nc2ccccc2c1=O            17.5
1  O=Nc1c(O)ccc2ccccc12.O=Nc1c(O)ccc2ccccc12.O=Nc1c([O-])ccc2ccccc12.[Fe+3]            88.9
2  O=C(/C=C/c1ccc(F)cc1)c1ccc(Nc2nc(NCCO)nc(Nc3ccc(Cl)cc3)n2)cc1              68

For each entry beneath this line, provide reported growth.
1. Cn1c2c(c(=O)[nH]c1=O)NC1=C(C(=O)c3ccccc31)C1(C=C(O)c3ccccc31)N2 (centres undefined)
2. Cc1ccc2nc(NC(=O)CSC(=S)N3CCN(c4ccccc4)CC3)sc2c1
3. COc1cc(NC(=O)CCSc2nc3ccccc3c(=O)n2CCc2ccccn2)cc(OC)c1OC
4. COc1ccc(C(O)(CCC(C)C)C(CN2CCOCC2)c2ccc(Cl)cc2)cc1 (centres undefined)
5. Cc1sc2ncn(CC(=O)Nc3ccc(S(N)(=O)=O)cc3)c(=O)c2c1C
6. CC(=O)Nc1nc2c(s1)CCc1c-2cn(S(=O)(=O)c2ccccc2)c1-c1ccccc1

94.1
95.5
81.6
53.8
101
40.9
